As shown below, each of these molecules has a reported Ki value.
Biological target: cAMP-specific 3',5'-cyclic phosphodiesterase 4B (Homo sapiens, UniProt Q07343)
Sequence (Q07343 whole entry): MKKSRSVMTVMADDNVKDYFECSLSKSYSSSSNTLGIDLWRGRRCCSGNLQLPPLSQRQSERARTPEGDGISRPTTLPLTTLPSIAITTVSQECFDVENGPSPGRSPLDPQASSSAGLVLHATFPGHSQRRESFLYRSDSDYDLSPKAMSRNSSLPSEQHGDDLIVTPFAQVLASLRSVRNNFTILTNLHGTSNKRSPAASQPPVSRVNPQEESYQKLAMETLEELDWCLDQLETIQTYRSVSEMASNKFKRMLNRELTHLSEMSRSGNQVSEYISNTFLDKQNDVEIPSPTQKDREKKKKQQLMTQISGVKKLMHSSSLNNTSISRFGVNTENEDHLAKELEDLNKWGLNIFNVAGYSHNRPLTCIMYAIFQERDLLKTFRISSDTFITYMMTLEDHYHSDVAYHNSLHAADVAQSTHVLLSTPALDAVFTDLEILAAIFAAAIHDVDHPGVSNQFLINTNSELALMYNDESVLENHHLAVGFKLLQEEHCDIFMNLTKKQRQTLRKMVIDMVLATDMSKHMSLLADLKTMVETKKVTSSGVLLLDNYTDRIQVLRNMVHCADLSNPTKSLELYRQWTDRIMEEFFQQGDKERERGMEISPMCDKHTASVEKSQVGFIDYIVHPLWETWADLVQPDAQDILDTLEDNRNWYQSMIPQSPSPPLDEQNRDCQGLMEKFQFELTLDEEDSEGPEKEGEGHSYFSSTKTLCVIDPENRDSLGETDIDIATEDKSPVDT
outcome.measure: Ki (nM)

{"molecule": "COc1ccc(Cn2cnc(N)c3nc(C(C)(C)OCc4ccccc4F)nc2-3)cc1OC1CCCC1", "outcome.measure": "Ki", "result.value": 18.9}
{"molecule": "COc1ccc(Cn2cnc(N)c3nc(C(C)(C)OCc4cccc(F)c4)nc2-3)cc1OC1CCCC1", "outcome.measure": "Ki", "result.value": 11.6}
{"molecule": "COc1ccc(Cn2cnc(N)c3nc(C(C)(C)OCc4ccc(OC(F)(F)F)cc4)nc2-3)cc1OC1CCCC1", "outcome.measure": "Ki", "result.value": 26.6}
{"molecule": "COc1ccc(Cn2cnc(N)c3nc(C(C)(C)COc4ccsc4)nc2-3)cc1OC1CCCC1", "outcome.measure": "Ki", "result.value": 9.5}
{"molecule": "COc1ccc(Cn2cnc(N)c3nc(C(C)(C)COc4cccs4)nc2-3)cc1OC1CCCC1", "outcome.measure": "Ki", "result.value": 46.9}
{"molecule": "COc1cc(COC(C)(C)c2nc3c(N)ncn(Cc4ccc(OC)c(OC5CCCC5)c4)c-3n2)cc(OC)c1", "outcome.measure": "Ki", "result.value": 21.9}
{"molecule": "COc1ccc(Cn2cnc(N)c3nc(C(C)OCc4ccc(F)cc4)nc2-3)cc1OC1CCCC1 (configuration not stated)", "outcome.measure": "Ki", "result.value": 269}
{"molecule": "COc1ccc(Cn2cnc(N)c3nc(C(C)(C)OCc4ccccc4)nc2-3)cc1OC1CCCC1", "outcome.measure": "Ki", "result.value": 8.9}
{"molecule": "COc1ccc(COC(C)(C)c2nc3c(N)ncn(Cc4ccc(OC)c(OC5CCCC5)c4)c-3n2)cc1OC", "outcome.measure": "Ki", "result.value": 42.8}
{"molecule": "COc1ccc(Cn2cnc(N)c3nc(C(C)(C)OCc4ccc(C(C)(C)C)cc4)nc2-3)cc1OC1CCCC1", "outcome.measure": "Ki", "result.value": 5.8}
{"molecule": "COc1ccc(Cn2cnc(N)c3nc(C(C)(C)OCc4ccc(F)c(F)c4)nc2-3)cc1OC1CCCC1", "outcome.measure": "Ki", "result.value": 17.3}
{"molecule": "COc1ccc(Cn2cnc(N)c3nc(C(C)(C)OCc4ccc(C#N)cc4)nc2-3)cc1OC1CCCC1", "outcome.measure": "Ki", "result.value": 71.3}
